Test system: mitochondrial DNA
Experiment: Mitochondrial toxicity in human HepG2 cells assessed as percent inhibition of mitochondrial DNA at 10 uM after 14 days by real-time PCR
Type: cell-based
measurement_type: inhibition at 336 h, 10 µM (%)
State just the number; it will be interpreted in %.

Prompt: Look at this compound and give its reported inhibition at 336 h, 10 µM. Nc1ccn([C@H]2CC[C@@H](CO)O2)c(=O)n1
Completion: 99.9

----------
Entries and their Activity
Biological target: Human immunodeficiency virus type 1 reverse transcriptase (Human immunodeficiency virus 1) (UniProt Q72547)
Experiment: Activity at HIV1 reverse transcriptase measured after 30 mins
Answer with the number, then the unit.

Please review the following examples before continuing.
[N-]=[N+]=N[C@H]1C[C@H](n2cnc3c(N)ncnc32)O[C@@H]1COP(=O)(O)OP(=O)(O)OP(=O)(O)O
23.2 s⁻¹
Nc1ncnc2c1ncn2[C@H]1C[C@H](O)[C@@H](COP(=O)(O)OP(=O)(O)OP(=O)(O)O)O1
24.4 s⁻¹
Nc1nc(=O)c2ncn([C@H]3C=C[C@@H](COP(=O)(O)OP(=O)(O)OP(=O)(O)O)C3)c2[nH]1 (single isomer, unassigned) [CARBOVIR 5'-TRIPHOSPHATE, (-)-]
0.6 s⁻¹
Cc1cn([C@H]2C=C[C@@H](COP(=O)(O)OP(=O)(O)OP(=O)(O)O)O2)c(=O)[nH]c1=O [STAVUDINE TRIPHOSPHATE]
4.3 s⁻¹
[N-]=[N+]=N[C@H]1C[C@H](n2cnc3c(=O)[nH]c(N)nc32)O[C@@H]1COP(=O)(O)OP(=O)(O)OP(=O)(O)O
4.8 s⁻¹

Prompt: What value of Activity has been recorded for this entry: Nc1ccn([C@@H]2CS[C@H](COP(=O)(O)OP(=O)(O)OP(=O)(O)O)O2)c(=O)n1
Completion: 0.023 s⁻¹

Prompt: # query: Activity of entry Cc1cn([C@H]2C[C@H](N=[N+]=[N-])[C@@H](COP(=O)(O)OP(=O)(O)OP(=O)(O)O)O2)c(=O)[nH]c1=O
Completion: 8.8 s⁻¹
